The origin of these recorded values is PubChem BioAssay.

Reported z-score is given for each of the following molecules.
assay: basal CRE-LacZ reporter activity in PC12 – cell-based, unstimulated, primary screen (AID 1145); conditions: no forskolin, luminescence, 4.5 h, higher = more signal, called active from +8 up or from −8 down
Give the figure only, with no unit attached.

Please review the entries below; each comes with its answer.
{"molecule": "C=CC[C@@]1(C(=O)NCCCOC)N=C(c2ccc(OCCCO)cc2)O[C@@H]1c1ccccc1", "value-type": "z-score", "measured-value": 1.51}
{"molecule": "[N-]=[N+]=Nc1ccccc1C[C@]1(C(=O)NCCN2CCOCC2)COC(c2ccc(OCCCO)cc2)=N1", "value-type": "z-score", "measured-value": 0.754}
{"molecule": "C=CCN1C(=O)[C@]2(CCC(=O)OC(C)(C)C)N=C(c3ccc(OCCCO)cc3)O[C@@H]2c2ccccc21", "value-type": "z-score", "measured-value": 0.124}
{"molecule": "COCCOC(=O)N1C(=O)[C@@]2(c3cc(C#CCNC(N)=O)ccc31)[C@H](C(N)=O)[C@H]1C(=O)O[C@H](c3ccccc3)[C@H](c3ccccc3)N1[C@@H]2c1ccccc1OCCO", "value-type": "z-score", "measured-value": -0.465}
{"molecule": "COC(=O)C1=CC(CCCO)=CC(c2ccc(CN3CCCC3)cc2)N(Cc2cccc(OC(F)(F)F)c2)C=C1C(=O)OC (stereo not drawn)", "value-type": "z-score", "measured-value": -0.554}

Entry under review: CC(C)C(O)C1C=CC2C(=O)N(c3ccccc3)C(=O)C2N1Nc1ccccc1 (stereo not drawn) . Reported z-score? 0.819

Record request: z-score value, item C#CCN([C@@H](Cc1ccccc1)C(=O)OC)[C@@H](/C=C/C1CC1)[C@H](O)Cc1ccccc1 1.67

Given Cc1ccc(NN2C(C(O)c3c(F)cccc3Cl)C=CC3C(=O)N(C4CCCCC4)C(=O)C32)cc1 (stereo not drawn) , state its recorded z-score. -0.0787
